target: Large T antigen (Simian virus 40, UniProt P03070); type: functional, Betapolyomavirus macacae;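 note: Confirmatory-stage PubChem screen for compounds that inhibit SV40 T antigen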
Sequence (P03070 whole entry): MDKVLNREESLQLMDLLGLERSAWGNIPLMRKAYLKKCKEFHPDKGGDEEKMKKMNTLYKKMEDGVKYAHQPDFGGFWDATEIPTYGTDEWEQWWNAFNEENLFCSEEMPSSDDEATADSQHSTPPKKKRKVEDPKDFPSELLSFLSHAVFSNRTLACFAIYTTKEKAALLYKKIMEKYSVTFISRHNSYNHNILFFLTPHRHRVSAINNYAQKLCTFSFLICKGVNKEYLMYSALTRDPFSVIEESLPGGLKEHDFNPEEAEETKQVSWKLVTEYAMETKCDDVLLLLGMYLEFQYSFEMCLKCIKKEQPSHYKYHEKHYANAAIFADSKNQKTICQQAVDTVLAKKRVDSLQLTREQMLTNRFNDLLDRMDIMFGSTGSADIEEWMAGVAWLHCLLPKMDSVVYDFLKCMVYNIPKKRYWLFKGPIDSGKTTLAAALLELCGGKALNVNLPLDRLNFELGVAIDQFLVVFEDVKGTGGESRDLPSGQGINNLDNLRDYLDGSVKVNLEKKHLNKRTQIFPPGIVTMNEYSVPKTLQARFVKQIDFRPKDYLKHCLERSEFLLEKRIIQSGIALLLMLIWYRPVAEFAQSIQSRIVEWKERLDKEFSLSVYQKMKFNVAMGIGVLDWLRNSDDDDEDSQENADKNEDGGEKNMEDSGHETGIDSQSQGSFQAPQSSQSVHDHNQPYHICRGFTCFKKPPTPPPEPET
The source made the active and inactive calls.
parameter: IC50

Would you please look over these solved cases?
O=C(N/N=C/c1cc(Br)c(O)c(Br)c1)c1cc2c(ccc3ccccc32)o1 = 19.9 µM (active)
N#CC1=C2SCN(Cc3ccco3)CN2C(=O)CC1c1c(F)cccc1Cl (stereo not given) = 84.4 µM (active)
FC(F)(F)C1CCCN(c2nsc3ccccc23)C1 (stereo not given) = 13 µM (active)
Nc1nc2ccc(O)cc2s1 = 3.5 µM (active)

The record that follows has no IC50 shown yet.
Req: Report IC50, nothing else, for this molecule: `Cc1ccc(-n2c(=O)c3c4c(sc3n3c(S)nnc23)CCC4)cc1`
Resp: 30.9 µM (active)

====

tested on: INS1; assay: INS-1E survival protection against cytokine death – cell-based, luminescence, retest, dose response (AID 449756); assay type: functional; details: Rattus norvegicus;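 note: cell death triggered by IL-1 beta plus TNF-alpha plus IFN-gamma mixture; protective hits raise ATP signal compared with cytokine alone wells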
Active and inactive are the calls of the source.
parameter: AC50

Cc1cc(N/N=C/c2ccc(O)cc2O)nc(-c2ccccc2O)n1 = 734 nM (active)
Cc1ccc(-c2csc(NC(=O)c3c(C)noc3C)n2)s1 = 3990 nM (active)

The record that follows has no AC50 shown yet.
Req: Report AC50, nothing else, for this compound: `COc1ccc(Cn2c(SCc3ccc(C)cc3)nc3cc(OC)c(OC)cc3c2=N)cc1Cl`
Resp: 3850 nM (active)

====

target: Corticotropin-releasing factor receptor 2/Corticotropin-releasing factor-binding protein (Homo sapiens, UniProt P24387+Q13324); test: activators of CRF receptor 2 with binding protein – uHTS hits, confirmation (AID 602473); type: functional; details: read-out: EC50_Mean
Sequence (Q13324 whole entry): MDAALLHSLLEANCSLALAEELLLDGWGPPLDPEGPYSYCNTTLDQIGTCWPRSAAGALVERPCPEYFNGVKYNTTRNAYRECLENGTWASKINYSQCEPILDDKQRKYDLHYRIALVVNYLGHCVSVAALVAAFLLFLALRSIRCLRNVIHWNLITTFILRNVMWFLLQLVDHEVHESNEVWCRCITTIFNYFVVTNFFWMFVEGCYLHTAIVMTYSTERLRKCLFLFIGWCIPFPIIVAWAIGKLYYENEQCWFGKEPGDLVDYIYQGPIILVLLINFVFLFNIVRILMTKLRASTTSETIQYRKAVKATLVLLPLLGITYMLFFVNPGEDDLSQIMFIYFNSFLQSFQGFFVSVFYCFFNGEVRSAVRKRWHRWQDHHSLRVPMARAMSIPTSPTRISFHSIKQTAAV
Sequence (P24387 whole entry): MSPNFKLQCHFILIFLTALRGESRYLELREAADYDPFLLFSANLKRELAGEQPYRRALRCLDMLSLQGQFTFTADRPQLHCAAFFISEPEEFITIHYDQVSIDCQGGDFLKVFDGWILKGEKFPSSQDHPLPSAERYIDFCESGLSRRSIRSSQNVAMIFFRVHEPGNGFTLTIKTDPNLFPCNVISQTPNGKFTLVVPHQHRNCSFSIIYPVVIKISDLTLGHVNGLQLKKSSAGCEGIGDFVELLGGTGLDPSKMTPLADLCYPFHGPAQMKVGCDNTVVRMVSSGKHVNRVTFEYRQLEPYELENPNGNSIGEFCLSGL
Active and inactive are the calls of the source.
Hi! Could you answer with just one of these? 1 = active, 0 = inactive

// below: answered compounds
CCOc1ccccc1C(=O)OCC(=O)NCC1CCCO1 (stereo unspecified) = 0
Cc1ccc(C)n1NC(=O)c1ccccc1O = 0
O=C(NCCc1cccnc1)C1CCC(=O)N(Cc2ccc(Cl)cc2)C1 (stereo unspecified) = 0
N#Cc1cccc(NCC(=O)Nc2ccc3c(c2)OCCO3)c1 = 0
NC(=O)COC(=O)c1ccc(-c2ccc(O)cc2)cc1 = 0
CN1CCc2c(sc3c2C(=O)NC(c2cccs2)N3)C1 (stereo unspecified) = 0
COc1ccc(C2=Nc3ccccc3C2(O)CCN2C(=O)c3ccccc3C2=O)cc1 (stereo unspecified) = 0
Cc1csc(NC(=O)Cc2ccc(Br)cc2)n1 = 0

Req: How did this test come out for `N#Cc1nc(Nc2cccc(Cl)c2)c2ncn(C3CCCC3)c2n1` ?
Resp: 0

Req: How did this test come out for COc1ccc(C2C3=C(O)CC(C)(C)CC3=Nc3c2c(=O)n(C)c(=O)n3C)cc1OC (stereo unspecified) ?
Resp: 0

Req: How did this test come out for `CCOC(=O)c1cc(C)sc1NC(=O)CCC(=O)O` ?
Resp: 0

Req: How did this test come out for `Cc1ccc(OCc2cc(C(=O)N3CCN(CC(=O)NC(C)C)CC3)no2)cn1` ?
Resp: 0

Req: How did this test come out for `O=C(O)c1cc(-c2ccccc2)nc(-c2ccccc2)c1` ?
Resp: 0

Req: How did this test come out for `CC(C)(C)C(=O)c1sc2nc(-c3cccs3)cc(C(F)(F)F)c2c1N` ?
Resp: 1

Req: How did this test come out for `C=CCn1cnc2c(c1=O)c1nc3ccccc3nc1n2/N=C/c1cccc(OC)c1OC` ?
Resp: 0

Req: How did this test come out for `Cc1noc(C)c1NC(=O)Nc1ccc2c(c1)C(=O)N([C@H](C)CO)C[C@H](C)[C@@H](CN(C)S(=O)(=O)c1ccc(F)cc1)O2` ?
Resp: 0
